Every entry's value here was drawn from ChEMBL document CHEMBL5030541.

Test system: HCT-116
Experiment: Cytotoxicity against human HCT-116 cells assessed as inhibition of cell growth measured after 48 hrs by MTT assay
Assay type: functional, cell-based
Conditions: HCT-116, 48 h
recordedMetric: IC50

structuresmilesstring=Nc1nc2cc3c(cc2cc1C(=O)NCC1CC1)OCO3 result="> 200 µM"
structuresmilesstring=Nc1nc2ncccc2cc1C(=O)NCc1cccnc1 result="> 200 µM"
structuresmilesstring=Nc1nc2cc3c(cc2cc1C(=O)NCc1ccccc1)OCO3 result="> 200 µM"
structuresmilesstring=Nc1nc2cc3c(cc2cc1C(=O)NCCc1c[nH]c2ccccc12)OCO3 result="> 200 µM"
structuresmilesstring=Nc1nc2cc3c(cc2cc1C(=O)NCc1cccnc1)OCO3 result="163 µM"
structuresmilesstring=C#CCNC(=O)c1cc2cc3c(cc2nc1N)OCO3 result="> 200 µM"
structuresmilesstring=Nc1nc2cc(Cl)ccc2cc1C(=O)NCc1cccnc1 result="> 200 µM"
